Cited source for all entries: the supplement of paper PMC11579375

area under the viability dose-response curve: recorded values
# System: 17F1 (fetal-I hepatoblastoma organoid with intermediate liver markers)
# Test Protocol: area under the viability dose-response curve (AUC) (AUC (arbitrary units, max 500 = no viability loss)); higher = less sensitive (higher viability)
# Particulars: exposure time: 120 h; concentration range: 0.1 nM - 10 µM, 6 doses
Kindly provide the number alone.

C[C@H]1Oc2cc(cnc2N)-c2c(nn(C)c2C#N)CN(C)C(=O)c2ccc(F)cc21    481
Nc1cc(F)ccc1NC(=O)c1ccc(CNC(=O)/C=C/c2cccnc2)cc1 [Epidaza]    467
C[C@@H]1CN(C(=O)c2ccc(NC(=O)c3cc(O[C@H](C)c4c(Cl)ccc(F)c4Cl)c(N)nn3)cc2)C[C@H](C)N1    483
C/C=C1\NC(=O)[C@H]2CSSCC/C=C/[C@H](CC(=O)N[C@H](C(C)C)C(=O)N2)OC(=O)[C@H](C(C)C)NC1=O    158

Input line: Any idea what its area under the viability dose-response curve is? The molecule is COc1cc(OC)cc(N(CCNC(C)C)c2ccc3ncc(-c4cnn(C)c4)nc3c2)c1
Output line: 499

Input line: Any idea what its area under the viability dose-response curve is? The molecule is O=C(O)C1(C(=O)O)CCC1.[NH2-].[NH2-].[Pt+2]
Output line: 494

Input line: Any idea what its area under the viability dose-response curve is? The molecule is Nc1ccn([C@@H]2O[C@H](CO)[C@@H](O)[C@@H]2O)c(=O)n1
Output line: 393

====

# Test system: 3E (embryonal-type hepatoblastoma organoid)
# Test Protocol: area under the viability dose-response curve (AUC) (AUC (arbitrary units, max 500 = no viability loss)); higher = less sensitive (higher viability)
# Particulars: exposure time: 120 h; concentration range: 0.1 nM - 10 µM, 6 doses
Hi! Just check whether area under the viability dose-response curve is below 300. Below gives label 1, equal or above gives label 0.

Study these solved cases before continuing.
Cc1cccc(-c2nn3c(c2-c2ccnc4ccc(C(N)=O)cc24)CCC3)n1 [Galunisertib]    label 0
CCOC(=O)CCNc1cc(N2CCc3ccccc3CC2)nc(-c2ccccn2)n1 [GSK J4]    label 0

Input line: Report whether reported area under the viability dose-response curve is lower than 300 (strictly) for CC[C@]1(O)C[C@@H]2CN(CCc3c([nH]c4ccccc34)[C@@](C(=O)OC)(c3cc4c(cc3OC)N(C)[C@H]3[C@@](O)(C(N)=O)[C@H](O)[C@]5(CC)C=CCN6CC[C@]43[C@@H]65)C2)C1 [Vindesine]
Output line: label 1

Input line: Report whether reported area under the viability dose-response curve is lower than 300 (strictly) for CC(C)C[C@H](NC(=O)[C@H](CCc1ccccc1)NC(=O)CN1CCOCC1)C(=O)N[C@@H](Cc1ccccc1)C(=O)N[C@@H](CC(C)C)C(=O)[C@@]1(C)CO1 [Carfilzomib]
Output line: label 1

Input line: Report whether reported area under the viability dose-response curve is lower than 300 (strictly) for CNc1nc(-c2nc3ccc(N4CCN(C)CC4)cc3n2Cc2ccccc2)cn2c(C)nnc12
Output line: label 0

Input line: Report whether reported area under the viability dose-response curve is lower than 300 (strictly) for CNC(=O)c1cc(Oc2ccc(NC(=O)Nc3ccc(Cl)c(C(F)(F)F)c3)cc2)ccn1 [Sorafenib]
Output line: label 0

Input line: Report whether reported area under the viability dose-response curve is lower than 300 (strictly) for Cn1nnc2c(C(N)=O)ncn2c1=O [Temozolomide]
Output line: label 0
